Sourced from ChEMBL document CHEMBL6103588

Quick record: pIC50, Prostaglandin G/H synthase 2 (Homo sapiens, UniProt P35354).
Numbers only, as −log10 of the molar value.

Answer for every listed entry: what is its pIC50? The entries follow.
1. COc1cc(/C=C/C(=O)Nc2ccc3sc(NCN4C(=O)CSC4=O)nc3c2)ccc1O
2. O=C(/C=C/c1ccccc1)Nc1ccc2sc(NCN3C(=O)CSC3=O)nc2c1

1: 6.73; 2: 6.97

----------
Target: Prostaglandin G/H synthase 1 (Homo sapiens, UniProt P23219)
Sequence (P23219 whole entry): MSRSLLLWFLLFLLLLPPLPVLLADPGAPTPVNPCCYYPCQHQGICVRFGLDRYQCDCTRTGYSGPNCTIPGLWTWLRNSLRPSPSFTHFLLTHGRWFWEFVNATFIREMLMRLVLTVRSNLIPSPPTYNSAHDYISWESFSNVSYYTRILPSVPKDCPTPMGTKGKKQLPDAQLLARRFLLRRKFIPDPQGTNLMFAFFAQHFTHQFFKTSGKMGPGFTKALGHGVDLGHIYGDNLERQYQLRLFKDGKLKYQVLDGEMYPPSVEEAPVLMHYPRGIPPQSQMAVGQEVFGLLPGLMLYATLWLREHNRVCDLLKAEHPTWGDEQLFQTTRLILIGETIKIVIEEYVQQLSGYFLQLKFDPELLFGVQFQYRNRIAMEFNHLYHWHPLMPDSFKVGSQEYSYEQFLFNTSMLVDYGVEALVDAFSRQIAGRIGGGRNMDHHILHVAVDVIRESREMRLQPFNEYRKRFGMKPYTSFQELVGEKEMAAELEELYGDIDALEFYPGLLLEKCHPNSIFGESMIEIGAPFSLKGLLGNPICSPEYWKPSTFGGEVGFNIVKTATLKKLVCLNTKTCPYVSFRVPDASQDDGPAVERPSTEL
Settings: read-out: IC50
readout.name: pIC50
Numbers only, as −log10 of the molar value.

>  <compound.structure>
O=C1S/C(=C\c2c[nH]c3ccccc23)C(=O)N1c1csc(Nc2ccccc2)n1

>  <pIC50>
4.48

$$$$

// for each molecule below, give its pIC50
1. COc1cc(/C=C/C(=O)Nc2ccc3sc(NCN4C(=O)CSC4=O)nc3c2)ccc1O
2. O=C1S/C(=C\c2ccccc2)C(=O)N1c1csc(Nc2ccccc2)n1
3. O=C(CN1C(=O)S/C(=C\c2c[nH]c3ccccc23)C1=O)Nc1nc2ccccc2s1
4. O=C(CN1C(=O)S/C(=C\c2ccc(O)cc2)C1=O)Nc1nccs1

1. 4.22
2. 4.53
3. 4.37
4. 4.29

----------
Biological target: Acetylcholinesterase (Electrophorus electricus, UniProt O42275)
Sequence (O42275 whole entry): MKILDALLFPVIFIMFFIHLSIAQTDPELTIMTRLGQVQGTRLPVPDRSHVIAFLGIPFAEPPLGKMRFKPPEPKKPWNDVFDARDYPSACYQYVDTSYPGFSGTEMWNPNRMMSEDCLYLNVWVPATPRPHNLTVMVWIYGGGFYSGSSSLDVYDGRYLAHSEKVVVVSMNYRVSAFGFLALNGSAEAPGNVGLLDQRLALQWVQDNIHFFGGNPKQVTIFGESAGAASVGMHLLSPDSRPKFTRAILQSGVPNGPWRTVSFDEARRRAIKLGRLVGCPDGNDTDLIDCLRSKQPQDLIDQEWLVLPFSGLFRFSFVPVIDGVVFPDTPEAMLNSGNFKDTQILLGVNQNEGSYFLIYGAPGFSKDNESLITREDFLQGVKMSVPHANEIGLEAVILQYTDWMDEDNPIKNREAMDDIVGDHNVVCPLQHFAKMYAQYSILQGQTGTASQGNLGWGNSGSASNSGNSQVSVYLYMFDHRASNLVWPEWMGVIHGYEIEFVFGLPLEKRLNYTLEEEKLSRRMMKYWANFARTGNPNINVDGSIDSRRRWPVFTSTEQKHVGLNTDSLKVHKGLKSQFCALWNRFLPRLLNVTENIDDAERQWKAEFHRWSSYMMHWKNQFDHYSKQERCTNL
Experiment: Inhibition of Electric eel AChE using acetylthiocholine iodide as substrate pre-incubated for 10 mins followed by substrate addition and measured after 15 mins by DTNB reagent based Ellman's method
Conditions: read-out: IC50
Please map values of IC50 to classes as shown: low: < 200 nM; middle: ≥ 200 nM and < 3000 nM; high: ≥ 3000 nM

Reference set, count: 5
>  <compound.structure>
O=C1S/C(=C\c2ccccc2)C(=O)N1c1csc(Nc2ccccc2)n1

>  <class.assignment>
middle

$$$$
>  <compound.structure>
COc1cc(/C=C/C(=O)Nc2ccc3sc(NCN4C(=O)CSC4=O)nc3c2)ccc1O

>  <class.assignment>
low

$$$$
>  <compound.structure>
O=C1S/C(=C\c2c[nH]c3ccccc23)C(=O)N1c1csc(Nc2ccccc2)n1

>  <class.assignment>
middle

$$$$
>  <compound.structure>
O=C(CN1C(=O)S/C(=C\c2c[nH]c3ccccc23)C1=O)Nc1nccs1

>  <class.assignment>
low

$$$$
>  <compound.structure>
O=C1S/C(=C\c2ccc(O)cc2)C(=O)N1CNc1nc2ccccc2s1

>  <class.assignment>
high

$$$$

Which IC50 category applies to O=C(CN1C(=O)S/C(=C\c2ccc(O)cc2)C1=O)Nc1nc2ccccc2s1 here?
middle

Sort O=C(CN1C(=O)S/C(=C\c2ccc(O)cc2)C1=O)Nc1nccs1 into one of the categories.
high

Could you place O=C1S/C(=C\c2c[nH]c3ccccc23)C(=O)N1CNc1nc(-c2ccccc2)cs1 in its proper category? Many thanks.
low

# bin label for O=C(/C=C/c1ccccc1)Nc1ccc2sc(NCN3C(=O)CSC3=O)nc2c1
high

Where would O=C(CN1C(=O)S/C(=C\c2c[nH]c3ccccc23)C1=O)Nc1nc2ccccc2s1 land among the classes by reported IC50?
middle

Field: class (IC50) — entry: O=C1S/C(=C\c2ccc(-c3ccccc3)cc2)C(=O)N1CNc1nc(-c2ccccc2)cs1
low

----------
I'd appreciate it if you could supply logP values for the items below.
Test: Lipophilicity, logP of compound
Type: physicochemical
Conditions: octanol/water

>  <compound.structure>
COc1cc(/C=C/C(=O)Nc2ccc3sc(NCN4C(=O)CSC4=O)nc3c2)ccc1O

>  <logP>
3.34

$$$$
>  <compound.structure>
O=C1S/C(=C\c2ccc(-c3ccccc3)cc2)C(=O)N1CNc1nc(-c2ccccc2)cs1

>  <logP>
6.78

$$$$
>  <compound.structure>
O=C1S/C(=C\c2c[nH]c3ccccc23)C(=O)N1CNc1nc(-c2ccccc2)cs1

>  <logP>
4.65

$$$$

Proceed to the following item.
Lab book: logP of C/C=C1\SC(=O)N(CNc2nc(-c3cc(Cl)cs3)c(Nc3ccc(S(N)(=O)=O)cc3)s2)C1=O noted as 4.86

----------
Target: Polyunsaturated fatty acid 5-lipoxygenase (Homo sapiens, UniProt P09917)
Sequence (P09917 whole entry): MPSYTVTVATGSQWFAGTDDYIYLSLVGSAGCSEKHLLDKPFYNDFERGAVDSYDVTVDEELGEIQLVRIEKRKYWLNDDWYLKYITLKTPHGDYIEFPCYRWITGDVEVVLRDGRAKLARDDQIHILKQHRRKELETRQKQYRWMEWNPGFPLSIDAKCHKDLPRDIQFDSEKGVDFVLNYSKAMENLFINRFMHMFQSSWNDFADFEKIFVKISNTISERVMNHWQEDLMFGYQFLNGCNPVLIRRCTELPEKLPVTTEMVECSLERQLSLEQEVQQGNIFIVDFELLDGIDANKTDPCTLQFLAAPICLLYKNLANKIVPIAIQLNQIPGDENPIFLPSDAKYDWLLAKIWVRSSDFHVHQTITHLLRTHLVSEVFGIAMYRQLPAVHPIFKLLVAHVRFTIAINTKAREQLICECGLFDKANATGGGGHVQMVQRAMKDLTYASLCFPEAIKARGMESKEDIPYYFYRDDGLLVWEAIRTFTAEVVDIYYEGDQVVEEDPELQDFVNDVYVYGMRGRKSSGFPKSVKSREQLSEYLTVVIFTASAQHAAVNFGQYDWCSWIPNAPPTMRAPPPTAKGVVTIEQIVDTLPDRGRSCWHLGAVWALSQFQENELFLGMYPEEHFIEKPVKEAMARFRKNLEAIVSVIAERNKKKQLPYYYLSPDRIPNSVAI
Provide the reported pIC50 of each item.
Numbers only, as −log10 of the molar value.

>  <compound.structure>
COc1cc(/C=C/C(=O)Nc2ccc3sc(NCN4C(=O)CSC4=O)nc3c2)ccc1O

>  <target>
Polyunsaturated fatty acid 5-lipoxygenase (Homo sapiens, UniProt P09917)

>  <pIC50>
6.74

$$$$

Continue with the next molecule.
Please fill in: pIC50 reported for O=C(/C=C/c1ccccc1)Nc1ccc2sc(NCN3C(=O)CSC3=O)nc2c1 = 6.68

----------
Assay: in vitro
Conditions: PAMPA, pH 7.4
Description: Permeability of compound in PBS at pH 7.4 incubated for 20 hrs by PAMPA-BBB assay
Each entry gets Not satisfied if its Papp at 20 h stays under 6 ×10⁻⁶ cm/s, and Satisfied if its Papp at 20 h is 6 ×10⁻⁶ cm/s or above.

Sample answers from the record:
>  <molecule>
COc1cc(/C=C/C(=O)Nc2ccc3sc(NCN4C(=O)CSC4=O)nc3c2)ccc1O

>  <class.assignment>
Not satisfied

$$$$
>  <molecule>
O=C1S/C(=C\c2c[nH]c3ccccc23)C(=O)N1CNc1nc(-c2ccccc2)cs1

>  <class.assignment>
Satisfied

$$$$
>  <molecule>
C/C=C1\SC(=O)N(CNc2nc(-c3cc(Cl)cs3)c(Nc3ccc(S(N)(=O)=O)cc3)s2)C1=O

>  <class.assignment>
Satisfied

$$$$
>  <molecule>
O=C1S/C(=C\c2ccc(-c3ccccc3)cc2)C(=O)N1CNc1nc(-c2ccccc2)cs1

>  <class.assignment>
Satisfied

$$$$
>  <molecule>
Cc1nnc2n1-c1ccc(Cl)cc1C(c1ccccc1)=NC2 [ALPRAZOLAM]

>  <class.assignment>
Not satisfied

$$$$

Shifting focus to the molecule that follows.
Assess whether reported Papp at 20 h for CCn1cc(C(=O)O)c(=O)c2cc(F)c(N3CCNC(C)C3)c(F)c21 (stereo unspecified) [LOMEFLOXACIN] sits at 6 ×10⁻⁶ cm/s or higher.
Not satisfied

----------
Experiment: Neurotoxicity against human SH-SY5Y cells assessed as reduction in cell viability upto 50 uM incubated for 24 hrs by MTT assay
Type: toxicity, cell-based

>  <compound.structure>
O=C1S/C(=C\c2c[nH]c3ccccc23)C(=O)N1CNc1nc(-c2ccccc2)cs1

>  <Activity>
Non-toxic

$$$$
>  <compound.structure>
O=C1S/C(=C\c2ccc(-c3ccccc3)cc2)C(=O)N1CNc1nc(-c2ccccc2)cs1

>  <Activity>
Non-toxic

$$$$
>  <compound.structure>
COc1cc(/C=C/C(=O)Nc2ccc3sc(NCN4C(=O)CSC4=O)nc3c2)ccc1O

>  <Activity>
Non-toxic

$$$$
>  <compound.structure>
C/C=C1\SC(=O)N(CNc2nc(-c3cc(Cl)cs3)c(Nc3ccc(S(N)(=O)=O)cc3)s2)C1=O

>  <Activity>
Non-toxic

$$$$

----------
Target: Prostaglandin G/H synthase 2 (Homo sapiens)
Sequence (P35354 whole entry): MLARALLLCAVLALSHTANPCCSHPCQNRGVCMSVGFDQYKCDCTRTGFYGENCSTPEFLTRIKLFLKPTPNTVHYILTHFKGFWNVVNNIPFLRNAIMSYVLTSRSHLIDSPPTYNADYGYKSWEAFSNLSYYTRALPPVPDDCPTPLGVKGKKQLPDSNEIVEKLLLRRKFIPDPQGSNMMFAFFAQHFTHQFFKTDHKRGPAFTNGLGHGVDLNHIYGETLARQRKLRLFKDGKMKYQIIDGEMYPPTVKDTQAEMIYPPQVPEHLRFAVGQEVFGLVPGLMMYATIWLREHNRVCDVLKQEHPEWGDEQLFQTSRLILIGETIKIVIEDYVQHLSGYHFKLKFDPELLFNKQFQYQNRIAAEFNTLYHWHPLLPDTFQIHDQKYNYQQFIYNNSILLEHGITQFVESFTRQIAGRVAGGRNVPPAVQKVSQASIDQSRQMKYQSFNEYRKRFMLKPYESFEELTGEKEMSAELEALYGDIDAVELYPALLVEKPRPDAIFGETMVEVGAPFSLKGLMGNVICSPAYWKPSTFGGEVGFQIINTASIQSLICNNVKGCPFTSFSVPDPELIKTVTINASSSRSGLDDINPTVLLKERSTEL
Assay: Inhibition of human COX2 by EIA method
readout.name: pIC50
Give bare numbers, as −log10 of the molar value.

So the reported pIC50 for CS(=O)(=O)c1ccc(-n2cc(/C=C3/SC(=O)NC3=O)c(-c3ccccc3)n2)cc1 , on Prostaglandin G/H synthase 2 (Homo sapiens), turned out to be 6.32

----------
Assay: Acute toxicity in male Swiss albino mouse assessed as mortality treated po single dose via gavage measured after 48 hrs by up-and-down method
Format: organism-based
Details: male, Swiss albino, in vivo
readout.name: LD50 at 48 h (mg/kg)
Numbers only, in mg/kg.

Lab note: COc1cc(/C=C/C(=O)Nc2ccc3sc(NCN4C(=O)CSC4=O)nc3c2)ccc1O gave LD50 at 48 h of 800
